- test details: Human HepG2 cell viability assay in 384 well format
- Assay type: toxicity, cell-based
- Parameters: dose 125 nL, time 70.5 hour; concentration not given beside the values
- applied conditions: HepG2 cells, read-out: Inhibition

| molecule | measurement units | cytotoxicity at 70.5 h |
| --- | --- | --- |
| Cc1ncc(CC(=O)N2CCCCC2CCN2CCCC2)c(=O)[nH]1 (centres undefined) | % | -3.87 |
| O=C(O)c1csc(NCCc2ccccc2)n1 | % | -1.2 |
| CC(C)NC(=O)[C@@H]1C[C@H](N)CN1C(=O)c1cc2c([nH]c1=O)CCCC2 | % | -7.39 |
| c1ccc(Oc2cccc(OC34CCCN(CC3)C4)c2)cc1 (centres undefined) | % | -12 |
| Cn1c(Cn2cccn2)nnc1C1CCCN(c2ccncc2F)C1 (centres undefined) | % | 3.69 |
| CCn1c(C)nnc1CN(C)C1CCN(CCCSC)C1 (centres undefined) | % | 26.5 |
| CC(Nc1cnn(C)c(=O)c1Cl)c1ccc(F)cc1 (centres undefined) | % | -13.1 |
| CN1C(=O)C2(CCNCC2)c2cc(F)ccc21 | % | -4.69 |
| COc1cccc(F)c1-c1nc2c([nH]1)c(C1CC1)nn2C | % | 10.5 |
| CCN1CCN(C)C2(CCN(C(=O)CC(F)(F)F)CC2)C1=O | % | 0.29 |
| N#Cc1cnc(NCc2cccc(C(=O)N3CCCC3)c2)c(Cl)c1 | % | -1.9 |
| CCc1nc(CN2CCCN(c3cnc4ccccc4n3)CC2)no1 | % | -2.11 |
| CCCc1cc(CNC2CCN(c3nc(C)cc(C)n3)CC2)on1 | % | -5.05 |
| Cc1cc(F)ccc1N1CCCC(NC2CCSCC2)C1=O (centres undefined) | % | -2.24 |
| CCOc1ccc(C#N)cc1NCC(=O)Nc1cc(C)no1 | % | -14.1 |
| Cc1nc(C(=O)N2CCCN(Cc3cnn(C)c3)CC2)ccc1C#N | % | -8.5 |
| CCCn1ncc(-c2nc3c(cnn3CC)[nH]2)c1C | % | -7.07 |
| Cc1ccnc(C(NC(=O)c2ncoc2C)C2CC2)n1 (centres undefined) | % | 16.5 |
| COc1ccc(NC(=O)CCC2CCCN(Cc3ncon3)C2)cc1Cl (centres undefined) | % | -7.33 |

* * *

- test details: Human HepG2 cell viability assay in 384 well format
- Assay type: toxicity, cell-based
- Parameters: dose 125 nL, time 70.5 hour; concentration not given beside the values
- applied conditions: HepG2 cells, read-out: Inhibition
This listing pairs molecules with measured cytotoxicity at 70.5 h.

| molecule | cytotoxicity at 70.5 h |
| --- | --- |
| O=C(C[S+]([O-])Cc1csc(C2CCCC2)n1)Nc1ccccc1 (stereo not drawn) | -17.5% |
| CCc1cnc(CCNS(C)(=O)=O)s1 | -6.67% |
| COc1ccc(CN(C(=O)C(C)C)c2cnn(C)c2)c(OC)c1 | -1.23% |
| CCc1c(C)nn(CCNC(=O)C2CCCN(C(=O)N(C)C)C2)c1C (stereo not drawn) | -10.4% |
| O=C1CC[C@@H](C(=O)N2CCC(Cn3cc(C4CCCCC4)nn3)CC2)N1 | -1.59% |
| Cc1nn(C)c(N(C)C)c1CNCc1ccccc1Cn1ccnc1 | -1.82% |
| CC(C)c1nccn1CCCNC(=O)c1ccc(N(C)C)nc1 | -1.73% |
| COc1ccc(F)cc1C(=O)C1CCCN(Cc2cnc(C)s2)C1 (stereo not drawn) | -11.8% |
| Cc1ccc(C)c(CC(=O)NC2(C#N)CCOCC2)c1 | 1.6% |
| COCC1CCN(CCOc2ccc(C#N)cc2OC)CC1 | 20.7% |
| Cc1nn(C)c2nc(N3CCNC(=O)C3Cc3ccccc3)sc12 (stereo not drawn) | -2.78% |
| Cc1ccccc1-c1cc(NC(=O)Cn2ccccc2=O)n(C)n1 | -0.508% |
| COCCNc1cc(C(=O)N2CCOCC2)nc(C)n1 | 0.483% |
| CCN(C(=O)c1nc2c(s1)CCCN2C(C)=O)C(C)C | 2.41% |
| Cc1nocc1C(=O)N1CCc2c(CN(C)C(C)C)n[nH]c2C1 | -8.09% |
| CC(C)Nc1ccnc(N2Cc3cnc(C(C)(C)C)nc3C2)n1 | 17.3% |
| CCOC(=O)NCC(=O)Nc1nc2ccccc2n1C(C)(C)C | 5.06% |
| OC1CCN(CCCn2ccnc2-c2c[nH]cn2)CC1 | -5.95% |
| O=C(O)c1cc(S(=O)(=O)Nc2ccc(F)cc2Cl)cc2c1OCCO2 | 0.949% |
| Cc1ccc(-n2ncc(C(=O)N3CCCC3c3cnn(C)c3)c2C)cc1 (stereo not drawn) | 11.4% |
| CCN(CCOC)C(=O)c1ccc2c(c1)nc(N1CC[C@H](O)C1)n2C | -8.67% |
| Cc1nc(N2CCCCC2)ncc1C(=O)N1CC(C)(C)[C@@](C)(O)C1 | -6.11% |
| CCNC(=O)N1C[C@@H]2OCC(=O)N(CC3CC3)[C@@H]2C1 | -3.79% |
| CCSc1cncc(N2CCC(NC(=O)C3CCCCC3)CC2)n1 | -13.5% |
| Cn1cc2c(n1)C(CNC(=O)Cc1ccsc1)OCC2 (stereo not drawn) | -6.77% |
| Cc1noc(C)c1-c1nc(NCCN(C)C)ncc1-c1cnccn1 | -6.59% |
| NC(=O)C1CCN(C(=O)CCCc2ccc(Cl)c(Cl)c2)CC1 | -6.88% |
| CCc1ccc(C(=O)N(CC(F)(F)F)C2CCCOC2)o1 (stereo not drawn) | -6.93% |
| Cc1cc(C)n(C2CN(CC(O)c3ccc(C(F)(F)F)cc3)C2)n1 (stereo not drawn) | -4.01% |
| O=C1CC(C(=O)Nc2nnc(-c3cccs3)[nH]2)c2ccccc2N1 (stereo not drawn) | -2.83% |
| Cc1cc(CN2CCN(CCOc3cccc(C#N)c3)CC2)no1 | 5.03% |
| O=c1[nH]c(-c2ccccc2)nc2c1CCN(S(=O)(=O)N1CCCC1)C2 | -7.26% |
| Nc1cncc(C(=O)N2Cc3ccccc3OC3(CCOCC3)C2)c1 | 7.99% |

* * *

- test details: Human HepG2 cell viability assay in 384 well format
- Format: toxicity, cell-based
- Set-up: dose 125 nL, time 70.5 hour; concentration not given beside the values
- applied conditions: HepG2 cells, read-out: Inhibition

| compound | measurement units | cytotoxicity at 70.5 h |
| --- | --- | --- |
| Cc1noc2ncnc(N(C)Cc3ccco3)c12 | % | -16.7 |
| NC(=O)N1CC2(CCNCC2)c2cc(Cl)ccc21 | % | -0.465 |
| OCC(CO)Nc1cccc(C(F)(F)F)n1 | % | 1.04 |
| CC(C)C[C@H](NC(=O)Cc1csc(-c2cccc(Cl)c2)n1)C(=O)O | % | 19.2 |
| O=S1(=O)CCC(c2nc(-c3cccc(Br)c3)no2)C1 (stereo unspecified) | % | -8.75 |
| CN1CCC2(COCc3cnc(-c4ccccc4)nc32)C1 (stereo unspecified) | % | -6.86 |
| CC(C)(C)c1nc(CC(=O)Nc2cnccc2O)cs1 | % | -2.57 |
| Cc1c(F)cccc1S(=O)(=O)NCCN | % | -0.256 |
| CN(Cc1nnc(C2CC2)n1C)S(=O)(=O)c1ccccc1F | % | 4.23 |
| O=C(c1cccnc1)N1CCN2C(=O)N(Cc3ccc(F)cc3)C[C@H]2C1 | % | 9.22 |
| CC(C)c1nc(C2CCCN2Cc2ccn(C)c(=O)c2)no1 (stereo unspecified) | % | -0.609 |
| CCn1nc2c(cc1=O)CN(CCCN1CCCC1=O)CC2 | % | 16.8 |
| Cc1ccc2nc(-c3cnc(N)nc3)cc(C(=O)N(C)C)c2c1 | % | 1.63 |
| CN(C)C(=O)c1ccc(C2CCCN2C(=O)CCC2=NNC(=O)CC2)s1 (stereo unspecified) | % | -14.5 |
| Cc1noc(C)c1CNC(C)c1ccc(S(=O)(=O)N(C)C)cc1 (stereo unspecified) | % | -2.42 |
| Cn1ncc2cnn(CC(O)COc3cccc4[nH]ccc34)c2c1=O (stereo unspecified) | % | 39.5 |
| COc1cccc(C2=CCN(CCN3CCOC3=O)CC2)c1 | % | 11.1 |
| COc1ccc(C(=O)O)c(OCC(=O)NC(C)c2ccccc2)c1 (stereo unspecified) | % | -5.77 |
| C[C@H]1CN(C(=O)c2cccnc2)C[C@@]12CCN(CCN1CCCC1)C2=O | % | -6.14 |
| O=C(O)c1ccc(F)c(S(=O)(=O)N2CCOc3ccccc32)c1 | % | -4.17 |
| CN1CCCC1CCNC(=O)Nc1ccccc1 (stereo unspecified) | % | -5 |
| CN(C)C(=O)CS(=O)(=O)Cc1cc(Cl)c2c(c1)OCCCO2 | % | 6.99 |
| CCC1CN(C)c2ccccc2CN1CCn1cncn1 (stereo unspecified) | % | -9.88 |
| Cc1nnc(NCc2ccc(F)cc2)o1 | % | -2.93 |
| CSC(C)(C)CNC(=O)NC(c1nnc2n1CCC2)C(C)C (stereo unspecified) | % | -3.59 |
| Cn1ncc2c(NC3CCSC3)nc(-c3ccncc3)nc21 (stereo unspecified) | % | 3.97 |
| C[C@@H]1CN(C(=O)c2cc(Cn3cnc4ccccc43)on2)C[C@H](C)O1 | % | -5.79 |
| O=C(NC1CCN(c2ncccc2F)C1)c1cccc(-n2ccnc2)c1 (stereo unspecified) | % | -9.37 |
| CNc1nc(CNC(=O)Nc2cccc(Cl)c2OC)cs1 | % | -3.54 |
| O=C1CN(C(=O)CCn2c(C(F)(F)F)cc3cccnc32)CCN1 | % | 4.91 |
| Cc1ccnc(C(NC(=O)c2sc(C)nc2C)C2CC2)n1 (stereo unspecified) | % | -2.09 |
| Cc1ncccc1C(=O)Nc1ccc2ccn(CCN(C)C)c2c1 | % | -4.81 |
| COC[C@]12COC[C@H]1CN(S(=O)(=O)c1cccnc1)C2 | % | -13 |
| COCC1COCCC12CCN(C(=O)COc1ccccc1C)CC2 (stereo unspecified) | % | -2.98 |
| CCN(CC)c1ccc(NS(=O)(=O)c2cnn(C)c2)cn1 | % | -2.05 |
| CCNc1cc2c(nn1)CCN(C(=O)c1ccc3cc[nH]c3c1)C2 | % | 2.8 |
| O=C1CNc2ncnc(Nc3cnn(Cc4ccccc4F)c3)c2N1 | % | 27.9 |
| CCc1nc(CN2CCCC(NCc3nc4ccccc4o3)C2)no1 (stereo unspecified) | % | -1.56 |
| CCN(Cc1cccc2c1OCO2)C(=O)NCc1ccccn1 | % | 13.5 |
| COCCC(=O)N1CC[C@@H]2O[C@@H](C)C[C@H]2C1 | % | -15.5 |
| CCc1ccc(CN2CCC(CNC(=O)c3ccc(C)nc3)C2)nc1 (stereo unspecified) | % | 16 |

Origin of the recorded values: ChEMBL document CHEMBL3507680
